FYI, the data here is from PubChem BioAssay (NCI).

Tested on: CCRF-CEM leukemia
ASSAY_DETAILS: NCI-60 one-dose screen, 48 h (100 = growth as untreated, 0 = no growth, -100 = all killed)
STUDY_CONDITIONS: 10 µM unless noted
This is part of a sample that, as a whole, favours compounds with a hit. Of some 83,000 tested, about 20% had one in any assay.
QUANTITY_KIND: growth (%)
The answer is to be given in %; state only the numeric part.

MOLECULE: Cc1cc(Cl)nc(N(CCCNc2ccnc3cc(Cl)ccc23)Cc2ccco2)n1
growth [%]: 20.6

Given the entry "N#C/C(=C\c1ccc(-c2ccccc2)o1)c1nc(-c2ccco2)cs1" , report its measured growth. 95.9

Try this molecule next: "C=C1CC[C@@H](C(=O)OC)Cc2nc(C)ccc21" 102

Try this molecule next: CC1c2ccccc2N(S(=O)(=O)c2ccccc2)C1C (centres undefined) 78.2

Try this molecule next: N#CC1=C(N)Oc2c(c(N)nn2-c2ccccc2)C1c1ccc(Cl)cc1Cl (centres undefined) 95.6

###

growth by entry:
System: SNB-75 CNS
ASSAY_DETAILS: NCI-60 one-dose screen, 48 h (100 = growth as untreated, 0 = no growth, -100 = all killed)
STUDY_CONDITIONS: 10 µM unless noted
Compounds without any hit were thinned out: in the full panel of roughly 83,000, 20% have a hit.
The answer is to be given in %; state only the numeric part.

Given the entry "O=C1C=Cc2ncccc2C1=O" , report its measured growth. 119

Try this compound next: "COc1ccc2c(c1)C/C(=C\c1cc(-c3cc(OC)c(OC)c(OC)c3)n[nH]1)C2=O" 78.4

Try this compound next: "Cc1cc(C=O)c(C)c2c1[nH]c1ccccc12" 78.7

Try this compound next: "C(=C\c1c[nH]c2ccccc12)/c1ccc2ccccc2n1" 81.1

Try this compound next: COc1ccc2c(c1)C(Br)=C(CCO)C2c1ccccc1 (stereo not given) 57

Try this compound next: "CN1CCN(CCOc2ccc(-c3cnc4c(-c5ccccc5F)cnn4c3)cc2)CC1" 120

Try this compound next: "CCN(CC)C(=O)CCCCCn1c2ccccc2c2c3c(c4c5ccccc5[nH]c4c21)C(=O)N(O)C3=O" 74.4

###

Test system: RXF 393 renal
ASSAY_DETAILS: NCI-60 one-dose screen, 48 h
STUDY_CONDITIONS: 10 µM unless noted
About 83,000 compounds went through this panel and 20% of them were active in at least one assay; those are over-represented in the sample as a whole. The source made the active and inactive calls. The calls were made as follows: active = growth percent below 10; inactive = the rest.
Reply using exactly one outcome from active, inactive

COMPOUND: COc1ccc2[nH]cc(-c3nc(-c4c[nH]c5ncccc45)cs3)c2c1
ASSIGNED_LABEL: active

COMPOUND: COc1cccc(-c2nn(-c3ccccc3)cc2-c2ccnc(NCCCO)c2)c1
ASSIGNED_LABEL: inactive

COMPOUND: N#CC1=C(N)Oc2c(c(N)nn2-c2ccccc2)C1c1ccc(Cl)cc1Cl (stereo not given)
ASSIGNED_LABEL: inactive

COMPOUND: O=C(N/N=C\c1c(O)ccc2ccccc12)C1CC1
ASSIGNED_LABEL: inactive

COMPOUND: COc1ccc(/C=C(\C#N)c2cc3ccccc3n2S(C)(=O)=O)cc1
ASSIGNED_LABEL: inactive

COMPOUND: Cc1ccccc1-c1nc(C(Cl)Cl)nc2cc(-c3ccccc3)nn12
ASSIGNED_LABEL: active

COMPOUND: COC(=O)[C@]12CC[C@@H](C)[C@H](C)[C@@H]1C1=CC[C@@H]3[C@@]4(C)C[C@@H](OC(C)=O)[C@H](OC(C)=O)[C@@](C)(COC(C)=O)[C@@H]4[C@H](O)C[C@@]3(C)[C@]1(C)CC2
ASSIGNED_LABEL: active

COMPOUND: COc1ccc(/C=C/C(=O)NCC(C)O)cc1 (stereo not given)
ASSIGNED_LABEL: inactive

I'd appreciate the recorded outcome for "Cn1c(=O)c2c(ncn2CCC(=O)Nc2ccc(F)cc2)n(C)c1=O" from this test. inactive

Try this compound next: COc1ccc(C2CC(=O)c3c(nc4ccc(Cl)cc4c3N)C2)cc1 (stereo not given) inactive

Try this compound next: "COc1ccc(-c2cc(/C=C/C(=O)c3ccc(OC)c(OC)c3)[nH]n2)cc1" active

Try this compound next: "CC1(C)C(=O)/C(=C\c2cccnc2)C[C@]2(C)[C@H]3CC[C@@H]4[C@@H](C(=O)/C=C/c5ccncc5)CC[C@@]4(C)[C@]3(C)CC[C@@H]12" active

Try this compound next: "c1cc(N2CCCC2)c2nc(-c3[nH]ncc3Nc3ncnc4[nH]ccc34)[nH]c2c1" active

Try this compound next: "COC(=O)[C@]12CC[C@@H](C(/C=C/c3cccnc3)=N/O)[C@@H]1[C@H]1CC[C@@H]3[C@@]4(C)CC(=C/c5cccnc5)/C(=N/O)C(C)(C)[C@@H]4CC[C@@]3(C)[C@]1(C)CC2" inactive

Try this compound next: "Cc1ccc(-c2nn(Cc3cn(-c4cc(C)nc5ccccc45)nn3)c3ncnc(N)c23)cc1" inactive

Try this compound next: "CCCNc1nc(N(C)O)nc(N(C)O)n1" inactive

###

System: NCI-H460 lung
ASSAY_DETAILS: NCI-60 one-dose screen, 48 h (100 = growth as untreated, 0 = no growth, -100 = all killed)
STUDY_CONDITIONS: 10 µM unless noted
Protocol: Growth inhibition of the NCI-H460 human Non-Small Cell Lung tumor cell line is measured as a screen for anti-cancer activity. Cells are grown in 96 well plates and exposed to the test compound for 48 hours. Compounds are tested at a single concentration, which is 10^-5 M for most compounds. The reported endpoint is percent growth (GI% or GIPRCNT), where numbers from 0 - 100% represent growth inhibition, and numbers from -100% - 0 represent cell death. […]
The panel holds about 83,000 compounds, 20% with a hit somewhere; the sample as a whole holds those more often.
The class of a record is decided solely by its measured growth; consult low (below 20%), mid (20% to below 80%), high (80% or more)

MOLECULE: C#CCC(C)(O)/C=C/C1=C(C)CCCC1(C)C (stereo not given)
ASSIGNED_LABEL: high

Class label required: "Cn1cc(-c2csc(-c3cn(CCN)c4ccc(Br)cc34)n2)c2cccnc21" low

Try this molecule next: "CN(C)c1ccc(N=C2C=CC(=O)C=C2)cc1" high

Try this molecule next: "Clc1cc(Cl)cc(Nc2ccc3c(OCCCN4CCOCC4)cccc3n2)c1" low

Try this molecule next: "O=C(CI)Nc1ccc(O)c2ccccc12" mid

Try this molecule next: "C=C(C)[C@@H]1CC[C@]2(CN)CC[C@]3(C)[C@H](CC[C@@H]4[C@@](C)(CCCN)[C@H](C(=C)C)CC[C@]43C)[C@@H]12" high

###

System: UACC-62 melanoma
ASSAY_DETAILS: NCI-60 one-dose screen, 48 h (100 = growth as untreated, 0 = no growth, -100 = all killed)
STUDY_CONDITIONS: 10 µM unless noted
About 83,000 compounds went through this panel and 20% of them were active in at least one assay; those are over-represented in the sample as a whole.
QUANTITY_KIND: growth (%)
The answer is to be given in %; state only the numeric part.

COMPOUND: O=C(NC(Cc1cn(Cc2ccccc2)cn1)C(=O)O)OCC1c2ccccc2-c2ccccc21 (stereo not given)
EXPERIMENTAL_TARGET: UACC-62 melanoma
MEASURED_VALUE: 112
//
COMPOUND: Oc1cc(/C=C/c2nc(N3CCOCC3)c3cc(Cl)c(Cl)cc3n2)cc(O)c1O
EXPERIMENTAL_TARGET: UACC-62 melanoma
MEASURED_VALUE: 98.8
//
COMPOUND: S=c1[nH]nc2ccccn12
EXPERIMENTAL_TARGET: UACC-62 melanoma
MEASURED_VALUE: 108
//
COMPOUND: COc1cnc2c(c1)C(=O)c1c-2n(CCCN2CCN(CCO)CC2)c(=O)c2cc([N+](=O)[O-])ccc12
EXPERIMENTAL_TARGET: UACC-62 melanoma
MEASURED_VALUE: 37.8

Given the entry "CC(=O)OC[C@]12CC[C@@H](/C(C)=N/O)[C@@H]1[C@H]1CC[C@@H]3[C@@]4(C)CCCNC(C)(C)[C@@H]4CC[C@@]3(C)[C@]1(C)CC2" , report its measured growth. 66.5

Try this compound next: Cc1ccc(NC2CC(=O)N(c3c(C)cc(C)cc3C)C2=O)c(C)c1 (stereo not given) 94.3

Try this compound next: CC1(C)c2ccccc2C(=O)C1(Br)Cc1ccccc1 (stereo not given) 78.3

Try this compound next: "O=C(O)c1cccc2c1C(=O)N(c1ccc3c(c1)Cc1ccccc1-3)C2=O" 112

Try this compound next: "O=C1NC(=Nc2ccc(S(=O)(=O)Nc3nccs3)cc2)S/C1=C\c1coc2ccccc2c1=O" 99.5

Try this compound next: "CCCCN1CCCCn2c1nc1c2c(=O)n(C)c(=O)n1C" 101
